Known pIC50 of a selection of compounds
subjectOfTest: SARS-CoV-2 NSP3 Mac1 (Severe acute respiratory syndrome coronavirus 2)
methodDescription: biochemical
Type: binding
recordedConditions: HTRF; read-out: IC50
Please express pIC50 as -log10 of the molar concentration.

Solved entries (count: 8):
Nc1cc(NC(=O)NC2CC2)ccc1C(=O)NC1c2cccc(O)c2CC1C(=O)O (stereo not drawn) [Z8539_0059]: 6.10
O=C(O)C1(F)CN(c2ncnc3[nH]c4cc(Br)ccc4c23)CC12CCC2 (stereo not drawn) [LL123_0006]: 4.03
O=C(Nc1ccc(C(=O)NC2c3cccc(O)c3CC2C(=O)O)c(Cl)c1)NC1CC1 (stereo not drawn) [Z8539_0055]: 5.00
O=C(Nc1ccc(C(=O)NCc2c(C(=O)O)sc3ccccc23)cc1)NC1CC1 [Z8539_0025]: 4.69
CS(=O)(=O)NC(=O)C1CN(c2ncnc3[nH]c4cc(F)ccc4c23)CCO1 (stereo not drawn) [LL114_0019]: 4.91
CC(C)NC(=O)Nc1ccc(C(=O)NC2c3cccc(O)c3CC2C(=O)O)cc1 (stereo not drawn) [Z8539_0046]: 6.10
O=C(O)CC1CN(c2ncnc3[nH]c4ccccc4c23)CC(C(F)(F)F)O1 (stereo not drawn) [Z1229]: 3.92
O=C(Nc1ccc(C(=O)NC2c3cccc(O)c3CC2C(=O)O)cn1)NC1CC1 (stereo not drawn) [Z8539_0054]: 4.80

Please report pIC50 for the following compound: O=C(O)C(F)(F)F.O=C(O)C1CN(c2ncnc3[nH]c4ccccc4c23)CC12CCC2 (stereo not drawn) [Z4706]
4.81

Please report pIC50 for the following compound: CC1(C)CN(c2ncnc3[nH]c4ccccc4c23)CC(CC(=O)O)O1 (stereo not drawn) [Z2215]
3.94

Please report pIC50 for the following compound: O=C(Nc1ccc(C(=O)NCc2c(C(=O)O)oc3ccccc23)cc1)NC1CC1 [Z8539_0026]
4.08

---

subjectOfTest: SARS-CoV-2 NSP3 Mac1 (Severe acute respiratory syndrome coronavirus 2)
Type: binding
recordedConditions: PanDDA 1-BDC of the event; compound stock 100 mM, Echo dispense volume 80 nl
Known 1-BDC of a selection of compounds
Number, no unit, nothing else.

Please report 1-BDC for the following compound: O[C@@H]1CC[C@H](Nc2ncnc3[nH]c4cc(F)ccc4c23)C1
0.07

---

subjectOfTest: SARS-CoV-2 NSP3 Mac1 (Severe acute respiratory syndrome coronavirus 2)
Type: binding
recordedConditions: ligand occupancy after refinement (phenix.refine); crystal soaking of Mac1
Known Refined occupancy of a selection of molecules
Number, no unit, nothing else.

Solved entries (count: 5):
O=C(NC1C=CC(C(=O)O)C1)c1ncnc2sccc12 (centres unmarked) [Compound Z6645]: 80
Cn1ccn2c(CCNC(=O)[C@H]3C[C@H]3C(=O)O)nnc2c1=O [Z6744]: 60
Cc1nc(Cn2cnc3c(N)nc(N)nc32)cs1 [Compound Z8569]: 80
O=C(CSc1nnn[nH]1)c1c[nH]c2ncc(Br)cc12 [R1104]: 54
O=C(O)Cc1cccc(CNC(=O)c2ncnc3ccsc23)c1 [Compound Z5712]: 64

Please report Refined occupancy for the following molecule: Cc1ccc(-c2nc(Cn3cnc4c(N)nc(N)nc43)cs2)o1 [Z4718398580]
60

Please report Refined occupancy for the following molecule: O=C(O)Cc1ccc(CNC(=O)c2ccnc3ccsc23)cc1 [Compound Z6625]
24

Please report Refined occupancy for the following molecule: O=C(O)C[C@@H]1CN(c2ncnc3[nH]c4cc(F)ccc4c23)C[C@H](CO)O1 [LL114_0001]
24

Please report Refined occupancy for the following molecule: COC(=O)Nc1ccc(C(=O)NC2c3ccccc3CC2C(=O)O)cc1 (centres unmarked) [Z8531]
8

Please report Refined occupancy for the following molecule: CS(=O)(=O)C1CCCN(c2ncnc3[nH]c4cc(F)ccc4c23)C1 (centres unmarked) [LL1_0027]
12

Please report Refined occupancy for the following molecule: O=S1(=O)CC(CNc2ncnc3[nH]c4cc(F)ccc4c23)C1 [LRH-0005]
20

Please report Refined occupancy for the following molecule: O=C(c1cn[nH]c(=O)c1)N1CCC(CF)(C(=O)O)C1 (centres unmarked) [REAL250001448407]
24

Please report Refined occupancy for the following molecule: OC[C@H]1CCCN(c2ncnc3[nH]c4cc(F)ccc4c23)C1 [Z7873]
12

Please report Refined occupancy for the following molecule: O=C(Nc1ccc(C(=O)N[C@H]2c3ccccc3CC[C@H]2C(=O)O)cc1)NC1CC1 [8539_0030]
64

---

Known 1-BDC of a selection of compounds
subjectOfTest: UniProtKB P0DTD1
Format: binding
recordedConditions: PanDDA event map, 1 minus background density correction; crystal soaking of Mac1
Number, no unit, nothing else.

Please report 1-BDC for the following compound: CC(CSc1nnc2[nH]cnn12)c1ccccc1 (stereo not drawn)
0.2

Please report 1-BDC for the following compound: CCc1c[nH]c2ncnc(N3CCCC(Cc4nc(C)no4)C3)c12 (stereo not drawn)
0.2

Please report 1-BDC for the following compound: CNC(=O)Nc1ccc(C(=O)NC2c3cccc(O)c3CC2C(=O)O)cc1 (stereo not drawn)
0.2

---

Known IC50 of a selection of compounds
subjectOfTest: SARS-CoV-2 NSP3 Mac1 (Severe acute respiratory syndrome coronavirus 2)
methodDescription: biochemical
Format: binding
recordedConditions: HTRF; read-out: IC50
Supply the numeric figure in µM, leaving out any unit text.

Solved entries (count: 3):
O=C(O)CC1CN(c2ncnc3[nH]ccc23)CC2(CCC2)O1 (stereo not shown) [F6831]: 44.2
O=C(CSc1nnn[nH]1)c1c[nH]c2ncc(Br)cc12 [R1104]: 55.3
O=C(OCCN1CCOC1=O)c1ncnc2[nH]ccc12 [Z8207]: 60.1

Please report IC50 for the following compound: O=C(O)CC1CCN(c2ncnc3[nH]c4ccccc4c23)CCC1(F)F (stereo not shown) [Z6423]
143

---

subjectOfTest: SARS-CoV-2 NSP3 Mac1 (Severe acute respiratory syndrome coronavirus 2)
Type: binding
recordedConditions: PanDDA 1-BDC of the event; compound stock 100 mM, Echo dispense volume 80 nl
measuredParameter: 1-BDC
Number, no unit, nothing else.

Solved entries (count: 2):
O=C(O)CC1CN(c2ncnc3[nH]c4ccccc4c23)CCO1 (stereo not drawn) [Compound Z9596]: 0.09
COC(=O)CC1CN(c2ncnc3[nH]c4cc(F)ccc4c23)CCO1 (stereo not drawn) [LL114_0040]: 0.08

Please report 1-BDC for the following molecule: O=C(O)C(F)(F)F.O=C(O)C1CN(c2ncnc3[nH]c4ccccc4c23)CC12CCC2 (stereo not drawn) [Compound Z4706]
0.21
